tested on: E. coli Ec13; experiment: FaAST (FDAA metabolic labeling); format: cell-based, Escherichia coli; conditions: unit assumed
Would you mind telling me the reported FaAST (MIC) of each entry?
One number for each entry, in µg/mL.

Observe how each entry below is paired with its result.
C[C@@H](O)[C@H]1C(=O)N2C(C(=O)O)=C(SCCN=CN)C[C@H]12 [Imipenem, imipenem] ... 128
NCC[C@H](O)C(=O)N[C@@H]1C[C@H](N)[C@@H](O[C@H]2O[C@H](CN)[C@@H](O)[C@H](O)[C@H]2O)[C@H](O)[C@H]1O[C@H]1O[C@H](CO)[C@@H](O)[C@H](N)[C@H]1O [Amikacin] ... 1

Now consider the entry below.
Value of measured FaAST (MIC) for the entry C[C@H]1COc2c(N3CCN(C)CC3)c(F)cc3c(=O)c(C(=O)O)cn1c23 [Levofloxacin, levofloxacin] : 4

====

Would you mind telling me the reported BMD (MIC) of each entry?
system: E. coli Ec11; test: BMD susceptibility test; format: cell-based, Escherichia coli; conditions: unit assumed

CO/N=C(\C(=O)N[C@@H]1C(=O)N2C(C(=O)[O-])=C(C[N+]3(C)CCCC3)CS[C@H]12)c1csc(N)n1 [Cefepime, cefepime] ... ≤ 0.25 mg/L
CN(C)c1cc(NC(=O)CNC(C)(C)C)c(O)c2c1C[C@H]1C[C@H]3[C@H](N(C)C)C(O)=C(C(N)=O)C(=O)[C@@]3(O)C(O)=C1C2=O ... ≤ 0.25 mg/L
CO/N=C(\C(=O)N[C@@H]1C(=O)N2C(C(=O)O)=C(COC(N)=O)CS[C@H]12)c1ccco1 ... 4 mg/L
C[C@@H](O)[C@H]1C(=O)N2C(C(=O)O)=C(SCCN=CN)C[C@H]12 ... ≤ 0.25 mg/L

Need BMD (MIC) for each of these compounds.
1. NCC[C@H](O)C(=O)N[C@@H]1C[C@H](N)[C@@H](O[C@H]2O[C@H](CN)[C@@H](O)[C@H](O)[C@H]2O)[C@H](O)[C@H]1O[C@H]1O[C@H](CO)[C@@H](O)[C@H](N)[C@H]1O
2. C[C@H]1COc2c(N3CCN(C)CC3)c(F)cc3c(=O)c(C(=O)O)cn1c23

Result string:
1: 4 mg/L; 2: ≤ 0.25 mg/L

====

tested on: E. coli Ec11; assay: FaAST (FDAA metabolic labeling); assay type: cell-based, Escherichia coli; conditions: unit assumed
Would you mind telling me the reported FaAST (MIC) of each entry?
Numbers only, in mg/L.

Observe how each entry below is paired with its result.
C[C@@H](O)[C@H]1C(=O)N2C(C(=O)O)=C(SCCN=CN)C[C@H]12 ... 1
C[C@H]1COc2c(N3CCN(C)CC3)c(F)cc3c(=O)c(C(=O)O)cn1c23 ... 0.5
NCC[C@H](O)C(=O)N[C@@H]1C[C@H](N)[C@@H](O[C@H]2O[C@H](CN)[C@@H](O)[C@H](O)[C@H]2O)[C@H](O)[C@H]1O[C@H]1O[C@H](CO)[C@@H](O)[C@H](N)[C@H]1O ... 8

Need FaAST (MIC) for each of these compounds.
1. CO/N=C(\C(=O)N[C@@H]1C(=O)N2C(C(=O)[O-])=C(C[N+]3(C)CCCC3)CS[C@H]12)c1csc(N)n1 [Cefepime, cefepime]
2. CO/N=C(\C(=O)N[C@@H]1C(=O)N2C(C(=O)O)=C(COC(N)=O)CS[C@H]12)c1ccco1

Result string:
1: 0.5; 2: 8

Provenance of the data: patent US20240240224A1
